For each record, write down the corresponding MBEC S. epidermidis.
Tested on: Staphylococcus epidermidis ATCC 14990
Assay type: cell-based
Cond: ATCC 14990, 24 h
Method: The Staphylococcus aureus ATCC 25923, Staphylococcus epidermidis ATCC 14990, Escherichia coli ATCC 25922, Pseudomonas aeruginosa ATCC 9027, Candida albicans ATCC 10231, Candida glabrata ATCC 15126, Candida lipolytica PCM 2680-FY, and Candida tropicalis PCM 2709-FY strains were acquired from the Polish Collection of Microorganisms (PCM, Polish Academy of Sciences, Wrocław, Poland) and from the American Type Culture Collection (ATCC). […] MBECs were determined on 96-well polystyrene flat-bottom plates. […]
Where a SMILES comes first, the peptide text is derived from it. Bridges are numbered along the chain shown (N, C = ends). The star is where a group is joined. Palmitoyl = CCCCCCCCCCCCCCCC(=O)*
# output: bare number, implied unit µg/mL

IN: Give its MBEC S. epidermidis value. Item: "CCCCCCCCCCCCCCCC(=O)N[C@@H](CCCCN)C(=O)N[C@@H](CCCCN)C(=O)N[C@@H](CCCCN)C(N)=O"
OUT: 32

IN: Using the record for CCCCCCCCCCCCCCCC(=O)N[C@@H](CCCCN)C(=O)N[C@@H](CCCCN)C(=O)N[C@@H](CCCNC(=N)N)C(=O)N[C@@H](CCCCN)C(N)=O [L5, C16-KKRK-NH2] (Palmitoyl-KKRK-NH2) , report its MBEC S. epidermidis.
OUT: 32

IN: What measured MBEC S. epidermidis goes with CCCCCCCCCCCCCCCC(=O)N[C@H]1CSSC[C@@H](C(N)=O)NC(=O)[C@H](CCCCN)NC(=O)[C@H](CCCCN)NC(=O)[C@H](CCCNC(=N)N)NC(=O)[C@H](CCCNC(=N)N)NC1=O [C7, C16-CRRKKC-NH2] (Palmitoyl-CRRKKC-NH2; disulfide 1-6) ?
OUT: 64

IN: Could you share which MBEC S. epidermidis value was measured for CCCCCCCCCCCCCCCC(=O)N[C@@H](CCCCN)C(=O)N[C@@H](CCCNC(=N)N)C(=O)N[C@@H](CCCCN)C(=O)N[C@@H](CCCCN)C(N)=O [L4, C16-KRKK-NH2] (Palmitoyl-KRKK-NH2) ?
OUT: 32

IN: Fill in: MBEC S. epidermidis of CCCCCCCCCCCCCCCC(=O)N[C@H]1CSSC[C@@H](C(N)=O)NC(=O)[C@H](CCCCN)NC(=O)[C@H](CCCCN)NC(=O)[C@H](CCCCN)NC(=O)[C@H](CCCNC(=N)N)NC1=O [C3, C16-CRKKKC-NH2] (Palmitoyl-CRKKKC-NH2; disulfide 1-6) is ___
OUT: 128

IN: GET /values?readout=MBEC S. epidermidis&item= CCCCCCCCCCCCCCCC(=O)N[C@H]1CSSC[C@@H](C(N)=O)NC(=O)[C@H](CCCCN)NC(=O)[C@H](CCCCN)NC(=O)[C@H](CCCCN)NC1=O [C1, C16-CKKKC-NH2] (Palmitoyl-CKKKC-NH2; disulfide 1-5)
OUT: 32

IN: What does the data say about its MBEC S. epidermidis? Entry: CCCCCCCCCCCCCCCC(=O)N[C@@H](CCCNC(=N)N)C(=O)N[C@@H](CCCCN)C(=O)N[C@@H](CCCCN)C(=O)N[C@@H](CCCCN)C(N)=O [L3, C16-RKKK-NH2] (Palmitoyl-RKKK-NH2)
OUT: 32

IN: I'd like to know its MBEC S. epidermidis. The compound in question is CCCCCCCCCCCCCCCC(=O)N[C@@H](CCCCN)C(=O)N[C@@H](CCCCN)C(=O)N[C@@H](CCCCN)C(=O)N[C@@H](CCCNC(=N)N)C(N)=O [L6, C16-KKKR-NH2] (Palmitoyl-KKKR-NH2)
OUT: 32

IN: Name the reported MBEC S. epidermidis value associated with the compound CCCCCCCCCCCCCCCC(=O)N[C@H]1CSSC[C@@H](C(N)=O)NC(=O)[C@H](CCCCN)NC(=O)[C@H](CCCNC(=N)N)NC(=O)[C@H](CCCCN)NC(=O)[C@H](CCCCN)NC1=O [C5, C16-CKKRKC-NH2] (Palmitoyl-CKKRKC-NH2; disulfide 1-6)
OUT: 64

IN: Reported MBEC S. epidermidis for CCCCCCCCCCCCCCCC(=O)N[C@H]1CSSC[C@@H](C(N)=O)NC(=O)[C@H](CCCNC(=N)N)NC(=O)[C@H](CCCCN)NC(=O)[C@H](CCCCN)NC(=O)[C@H](CCCCN)NC1=O [C6, C16-CKKKRC-NH2] (Palmitoyl-CKKKRC-NH2; disulfide 1-6) : what is it?
OUT: 128

IN: Query (compound): CCCCCCCCCCCCCCCC(=O)N[C@@H](CCCCN)C(=O)N[C@@H](CCCCN)C(=O)N[C@@H](CCCCN)C(=O)N[C@@H](CCCCN)C(N)=O [L2, C16-KKKK-NH2] (Palmitoyl-KKKK-NH2) ; field requested: MBEC S. epidermidis
OUT: 32

src = paper PMC7582905
